Target: IDO (Homo sapiens)
Sequence (P14902 whole entry): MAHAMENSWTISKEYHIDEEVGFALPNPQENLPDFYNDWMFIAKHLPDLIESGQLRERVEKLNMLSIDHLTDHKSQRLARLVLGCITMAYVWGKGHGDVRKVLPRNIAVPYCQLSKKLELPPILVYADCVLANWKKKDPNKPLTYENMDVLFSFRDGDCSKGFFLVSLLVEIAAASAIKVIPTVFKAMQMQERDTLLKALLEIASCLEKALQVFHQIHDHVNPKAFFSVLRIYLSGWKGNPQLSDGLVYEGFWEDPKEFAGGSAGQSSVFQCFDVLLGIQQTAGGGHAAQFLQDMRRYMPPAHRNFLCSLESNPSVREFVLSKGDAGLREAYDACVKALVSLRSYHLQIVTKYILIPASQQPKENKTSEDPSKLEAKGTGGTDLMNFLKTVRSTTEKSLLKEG
Assay: SKOV3 kynurenine cell-based assay (IDO induced by IFN-γ)
Design: IDO expression was induced in the SKOV3 cells by the addition of 500 ng/ml IFN-γ; endogenous in cells; host or cells: SKOV3 (human ovarian adenocarcinoma), induced with IFN-γ
Settings: SKOV3 human ovarian adenocarcinoma cells, 500 ng/ml IFN-γ, 48 hours, 500 μM L-tryptophan; read-out: SKOV3 Kynurenine cell based assay pIC50 (converted)
Procedure: Exemplary compounds of the invention were prepared, and tested to determine their effect as TDO and/or IDO inhibitors. […] This coupled enzyme system allowed conversion of N-formylkynurenine produced by TDO or IDO activity to kynurenine which was then quantified by fluorescence following addition of Erhlich's Reagent The protocols for these are set out below. […]
Readings of IC50 for the listed compounds

Below: 8 compounds and their reported IC50.
1. NC(=O)N1CCN(c2cc(Cl)cc3[nH]ncc23)CC1 [Compound 110]    3.24 to 31.6 µM
2. CS(=O)(=O)N1C2CCC1CN(c1cc(Cl)cc3[nH]ncc13)C2 [Compound 232]    3.24 to 31.6 µM
3. Nc1ccnn1C1CCN(c2cc(Cl)cc3[nH]ncc23)CC1 [Compound 430]    > 100 µM
4. CS(=O)(=O)N1CCN(c2cc(Cl)cc3c(N)n[nH]c23)CC1 [Compound 306]    3.24 to 31.6 µM
5. Cn1cc(-c2cc(Cl)cc3[nH]ncc23)cn1 [Compound 366]    3.24 to 31.6 µM
6. CC(=O)N(C)C1CCN(c2cc(Cl)cc3[nH]ncc23)CC1 [Compound 251]    3.24 to 31.6 µM
7. CC(=O)N1CCC2(CC1)CCN(c1cc(Cl)cc3[nH]ncc13)CC2 [Compound 352]    < 3.16 µM
8. CCS(=O)(=O)N1CCC(c2cc(Cl)cc3[nH]ncc23)CC1 [Compound 423]    3.24 to 31.6 µM

Query string: If you can, please state the reported IC50 value of CS(=O)(=O)N1CCN(c2cc(Cl)cc3[nH]ncc23)CC12CC2 [Compound 94] .
Result string: 3.24 to 31.6 µM

Query string: For the compound shown here, CS(=O)(=O)c1ccc(Nc2cc(Cl)cc3[nH]ncc23)cc1 [Compound 180] , give the reported IC50.
Result string: 32.4 to 100 µM
